assaySystem: Carbonic anhydrase 2 (Homo sapiens, UniProt P00918)
experimentNotes: Inhibition of recombinant human carbonic anhydrase-2 at 0.01 uM after 15 mins by stopped flow CO2 hydrase assay (reference value: 0%)

compound: COc1ccc(NC(=O)Nc2nc(N)n(-c3ccc(S(N)(=O)=O)cc3)n2)cc1
assaySystem: Carbonic anhydrase 2 (Homo sapiens, UniProt P00918)
inhibition at 0.25 h, 0.01 µM (%): 15

###

assaySystem: UniProt Q16790
experimentNotes: Inhibition of recombinant human carbonic anhydrase-9 incubated for 15 mins by stopped flow CO2 hydrase assay
Consider the following partition of reported Ki into named classes: lo = under 8 nM, mid = from 8 nM up to 30 nM, hi = 30 nM and over

compound: Nc1nc(C(=O)N/N=C/c2ccc(N3CCOCC3)cc2)nn1-c1ccc(S(N)(=O)=O)cc1
assaySystem: UniProt Q16790
answerLabel: mid
--
compound: Nc1nc(NC(=O)Nc2ccc(S(N)(=O)=O)cc2)nn1-c1ccc(S(N)(=O)=O)cc1
assaySystem: UniProt Q16790
answerLabel: mid
--
compound: Cc1ccc(NC(=O)Nc2nc(N)n(-c3ccc(S(N)(=O)=O)cc3)n2)cc1
assaySystem: UniProt Q16790
answerLabel: lo
--
compound: Cc1cc(=O)n2c(C(=O)N/N=C/c3ccncc3)nn(-c3ccc(S(N)(=O)=O)cc3)c2n1
assaySystem: UniProt Q16790
answerLabel: mid
--
compound: Nc1nc(C(=O)N/N=C/c2ccc([N+](=O)[O-])cc2)nn1-c1ccc(S(N)(=O)=O)cc1
assaySystem: UniProt Q16790
answerLabel: hi
--
compound: C/C(=N\NC(=O)c1nc(N)n(-c2ccc(S(N)(=O)=O)cc2)n1)c1ccncc1
assaySystem: UniProt Q16790
answerLabel: lo
--
compound: Nc1nc(NC(=O)Nc2ccc(Cl)cc2)nn1-c1ccc(S(N)(=O)=O)cc1
assaySystem: UniProt Q16790
answerLabel: hi
--
compound: C/C(=N\NC(=O)c1nc(N)n(-c2ccc(S(N)(=O)=O)cc2)n1)c1ccc(N2CCOCC2)cc1
assaySystem: UniProt Q16790
answerLabel: hi

###

assaySystem: Carbonic anhydrase 2 (Homo sapiens, UniProt P00918)
experimentNotes: Inhibition of recombinant human carbonic anhydrase-2 incubated for 15 mins by stopped flow CO2 hydrase assay
pKi: −log10 of the molar value.
reportedMetric: pKi

compound: C/C(=N\NC(=O)c1nc(N)n(-c2ccc(S(N)(=O)=O)cc2)n1)c1ccncc1
readoutValue: 8.07

compound: Cc1ccc(NC(=O)Nc2nc(N)n(-c3ccc(S(N)(=O)=O)cc3)n2)cc1
readoutValue: 7.37

compound: Nc1nc(C(=O)NNC(=S)Nc2ccc(Cl)cc2)nn1-c1ccc(S(N)(=O)=O)cc1
readoutValue: 7.95

compound: C/C(=N\NC(=O)c1nc(N)n(-c2ccc(S(N)(=O)=O)cc2)n1)c1ccccc1
readoutValue: 8.05

compound: COc1ccc(/C=N/NC(=O)c2nn(-c3ccc(S(N)(=O)=O)cc3)c3nc(C)cc(=O)n23)cc1
readoutValue: 6.49

compound: Nc1nc(C(=O)N/N=C/c2ccc(N3CCCCC3)cc2)nn1-c1ccc(S(N)(=O)=O)cc1
readoutValue: 7.02

compound: Nc1nc(NC(=O)Nc2ccc(C(=O)O)cc2)nn1-c1ccc(S(N)(=O)=O)cc1
readoutValue: 8.02

compound: Nc1nc(C(=O)NNC(=S)Nc2ccccc2)nn1-c1ccc(S(N)(=O)=O)cc1
readoutValue: 8.01

compound: Cc1cc(=O)n2c(C(=O)N/N=C/c3ccc(N4CCN(C)CC4)cc3)nn(-c3ccc(S(N)(=O)=O)cc3)c2n1
readoutValue: 6.08

compound: COc1ccc(NC(=O)Nc2nc(N)n(-c3ccc(S(N)(=O)=O)cc3)n2)cc1
readoutValue: 6.90

compound: NNC(=O)c1nc(N)n(-c2ccc(S(N)(=O)=O)cc2)n1
readoutValue: 7.70

compound: Nc1nc(NC(=O)Nc2ccccc2)nn1-c1ccc(S(N)(=O)=O)cc1
readoutValue: 8.01

compound: Nc1nc(C(=O)N/N=C/c2ccc(O)cc2)nn1-c1ccc(S(N)(=O)=O)cc1
readoutValue: 8.06

compound: Nc1nc(C(=O)N/N=C/c2ccc(N3CCOCC3)cc2)nn1-c1ccc(S(N)(=O)=O)cc1
readoutValue: 7.19

compound: Nc1nc(C(=O)NNC(=O)Nc2ccc(Cl)cc2)nn1-c1ccc(S(N)(=O)=O)cc1
readoutValue: 7.96

compound: Nc1nc(C(=O)N/N=C/c2cccnc2)nn1-c1ccc(S(N)(=O)=O)cc1
readoutValue: 7.13

compound: Nc1nc(NC(=O)Nc2ccc(Cl)cc2)nn1-c1ccc(S(N)(=O)=O)cc1
readoutValue: 8.02

compound: Nc1nc(C(=O)N/N=C/c2ccc(F)cc2)nn1-c1ccc(S(N)(=O)=O)cc1
readoutValue: 7.19

compound: Cc1cc(=O)n2c(C(=O)NN)nn(-c3ccc(S(N)(=O)=O)cc3)c2n1
readoutValue: 7.13

###

assaySystem: Carbonic anhydrase 1 (Homo sapiens, UniProt P00915)
Sequence (P00915 whole entry): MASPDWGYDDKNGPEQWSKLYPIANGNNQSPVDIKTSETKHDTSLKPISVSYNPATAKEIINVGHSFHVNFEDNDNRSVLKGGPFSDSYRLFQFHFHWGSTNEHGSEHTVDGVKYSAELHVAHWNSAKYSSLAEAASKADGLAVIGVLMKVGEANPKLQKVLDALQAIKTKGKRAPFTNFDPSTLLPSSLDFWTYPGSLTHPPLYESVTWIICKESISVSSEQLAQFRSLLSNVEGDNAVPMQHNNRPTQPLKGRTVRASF
experimentNotes: Inhibition of recombinant human carbonic anhydrase-1 at 0.1 uM after 15 mins by stopped flow CO2 hydrase assay (reference value: 0%)
reportedMetric: inhibition at 0.25 h, 0.1 µM (%)

compound: COc1ccc(NC(=O)Nc2nc(N)n(-c3ccc(S(N)(=O)=O)cc3)n2)cc1
unitsSymbol: %
readoutValue: 31

###

assaySystem: Carbonic anhydrase 2 (Homo sapiens)
experimentNotes: Inhibition of recombinant human carbonic anhydrase-2 incubated for 15 mins by stopped flow CO2 hydrase assay
Ki: recorded values
reportedMetric: Ki (nM)

compound: Nc1nc(C(=O)N/N=C/c2ccccc2)nn1-c1ccc(S(N)(=O)=O)cc1
reportedMetric: Ki
readoutValue: 86.4

compound: Nc1nc(C(=O)N/N=C/c2ccc([N+](=O)[O-])cc2)nn1-c1ccc(S(N)(=O)=O)cc1
reportedMetric: Ki
readoutValue: 24.7

compound: Nc1nc(NC(=O)Nc2ccc(F)cc2)nn1-c1ccc(S(N)(=O)=O)cc1
reportedMetric: Ki
readoutValue: 65.5

compound: Nc1nc(C(=O)NNC(=O)Nc2ccccc2)nn1-c1ccc(S(N)(=O)=O)cc1
reportedMetric: Ki
readoutValue: 70.5

compound: Nc1nc(C(=O)N/N=C/c2ccc(Cl)cc2)nn1-c1ccc(S(N)(=O)=O)cc1
reportedMetric: Ki
readoutValue: 6.9

###

assaySystem: Carbonic anhydrase 1 (Homo sapiens)
experimentNotes: Inhibition of recombinant human carbonic anhydrase-1 incubated for 15 mins by stopped flow CO2 hydrase assay
pKi: −log10 of the molar value.
reportedMetric: pKi

compound: Nc1nc(C(=O)N/N=C/c2ccc(N3CCCCC3)cc2)nn1-c1ccc(S(N)(=O)=O)cc1
readoutValue: 6.08
--
compound: Nc1nc(C(=O)NNC(=S)Nc2ccc(Cl)cc2)nn1-c1ccc(S(N)(=O)=O)cc1
readoutValue: 6.22
--
compound: C/C(=N\NC(=O)c1nc(N)n(-c2ccc(S(N)(=O)=O)cc2)n1)c1ccc(N2CCOCC2)cc1
readoutValue: 6.10
--
compound: Nc1nc(C(=O)NNC(=O)Nc2ccccc2)nn1-c1ccc(S(N)(=O)=O)cc1
readoutValue: 6.51
--
compound: Nc1nc(C(=O)N/N=C/c2ccc(Cl)cc2)nn1-c1ccc(S(N)(=O)=O)cc1
readoutValue: 6.15

###

assaySystem: Carbonic anhydrase 9 (Homo sapiens)
experimentNotes: Inhibition of recombinant human carbonic anhydrase-9 incubated for 15 mins by stopped flow CO2 hydrase assay

compound: Nc1nc(C(=O)NNC(=O)Nc2ccccc2)nn1-c1ccc(S(N)(=O)=O)cc1
Ki, nM: 4.9
--
compound: Nc1nc(C(=O)NNC(=O)Nc2ccc(Cl)cc2)nn1-c1ccc(S(N)(=O)=O)cc1
Ki, nM: 16.4
--
compound: Cc1cc(=O)n2c(C(=O)NN)nn(-c3ccc(S(N)(=O)=O)cc3)c2n1
Ki, nM: 45.4
--
compound: NNC(=O)c1nc(N)n(-c2ccc(S(N)(=O)=O)cc2)n1
Ki, nM: 22.8
--
compound: Cc1cc(=O)n2c(C(=O)N/N=C/c3ccccn3)nn(-c3ccc(S(N)(=O)=O)cc3)c2n1
Ki, nM: 47.9

###

assaySystem: Carbonic anhydrase 1 (Homo sapiens, UniProt P00915)
experimentNotes: Inhibition of recombinant human carbonic anhydrase-1 at 10 uM after 15 mins by stopped flow CO2 hydrase assay (reference value: 0%)
reportedMetric: inhibition at 0.25 h, 10 µM (%)

compound: COc1ccc(NC(=O)Nc2nc(N)n(-c3ccc(S(N)(=O)=O)cc3)n2)cc1
readoutValue: 75

###

assaySystem: Carbonic anhydrase 1 (Homo sapiens, UniProt P00915)
experimentNotes: Inhibition of recombinant human carbonic anhydrase-1 at 1 uM after 15 mins by stopped flow CO2 hydrase assay (reference value: 0%)

compound: COc1ccc(NC(=O)Nc2nc(N)n(-c3ccc(S(N)(=O)=O)cc3)n2)cc1
inhibition at 0.25 h, 1 µM: 63%

###

assaySystem: Carbonic anhydrase 1 (Homo sapiens, UniProt P00915)
experimentNotes: Inhibition of recombinant human carbonic anhydrase-1 incubated for 15 mins by stopped flow CO2 hydrase assay
// assign TRUE if Ki falls strictly below 0.5 µM, else FALSE (ties count as FALSE)

compound: Nc1nc(NC(=O)Nc2ccccc2)nn1-c1ccc(S(N)(=O)=O)cc1
assaySystem: Carbonic anhydrase 1 (Homo sapiens, UniProt P00915)
answerLabel: TRUE
//
compound: C/C(=N\NC(=O)c1nc(N)n(-c2ccc(S(N)(=O)=O)cc2)n1)c1ccncc1
assaySystem: Carbonic anhydrase 1 (Homo sapiens, UniProt P00915)
answerLabel: TRUE
//
compound: CCOC(=O)c1nn(-c2ccc(S(N)(=O)=O)cc2)c2nc(C)cc(=O)n12
assaySystem: Carbonic anhydrase 1 (Homo sapiens, UniProt P00915)
answerLabel: FALSE
//
compound: Cc1cc(=O)n2c(C(=O)N/N=C/c3ccncc3)nn(-c3ccc(S(N)(=O)=O)cc3)c2n1
assaySystem: Carbonic anhydrase 1 (Homo sapiens, UniProt P00915)
answerLabel: FALSE
//
compound: C/C(=N\NC(=O)c1nc(N)n(-c2ccc(S(N)(=O)=O)cc2)n1)c1ccccc1
assaySystem: Carbonic anhydrase 1 (Homo sapiens, UniProt P00915)
answerLabel: FALSE
//
compound: Cc1cc(=O)n2c(C(=O)NN)nn(-c3ccc(S(N)(=O)=O)cc3)c2n1
assaySystem: Carbonic anhydrase 1 (Homo sapiens, UniProt P00915)
answerLabel: FALSE
//
compound: Nc1nc(C(=O)N/N=C/c2cccnc2)nn1-c1ccc(S(N)(=O)=O)cc1
assaySystem: Carbonic anhydrase 1 (Homo sapiens, UniProt P00915)
answerLabel: TRUE
//
compound: Nc1nc(C(=O)N/N=C/c2ccc([N+](=O)[O-])cc2)nn1-c1ccc(S(N)(=O)=O)cc1
assaySystem: Carbonic anhydrase 1 (Homo sapiens, UniProt P00915)
answerLabel: FALSE
//
compound: Nc1nc(C(=O)N/N=C/c2ccc(O)cc2)nn1-c1ccc(S(N)(=O)=O)cc1
assaySystem: Carbonic anhydrase 1 (Homo sapiens, UniProt P00915)
answerLabel: TRUE
//
compound: NNC(=O)c1nc(N)n(-c2ccc(S(N)(=O)=O)cc2)n1
assaySystem: Carbonic anhydrase 1 (Homo sapiens, UniProt P00915)
answerLabel: FALSE
//
compound: Nc1nc(NC(=O)Nc2ccc(F)cc2)nn1-c1ccc(S(N)(=O)=O)cc1
assaySystem: Carbonic anhydrase 1 (Homo sapiens, UniProt P00915)
answerLabel: TRUE
